B1: CPEB3 Ribozyme (parent)
chain: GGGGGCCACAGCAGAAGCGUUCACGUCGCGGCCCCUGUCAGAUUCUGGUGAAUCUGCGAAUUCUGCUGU

Variants of: B1
experimental details: self-cleavage, relative activity (ratio to wild type); higher = more cleavage; co-transcriptional
A collection of variants and their measured self-cleavage

changes: C24A U62C
val: 0.402
//
changes: G17U U43C
val: 0.446

IN: Any idea what self-cleavage was measured for A42C U61C ?
OUT: 0.477

IN: Any idea what self-cleavage was measured for G1U C57G ?
OUT: 0.0901

IN: Any idea what self-cleavage was measured for G50U C57U ?
OUT: 0.366

IN: Any idea what self-cleavage was measured for G47U U69G ?
OUT: 1.05

IN: Any idea what self-cleavage was measured for A16C C66A ?
OUT: 0.18

IN: Any idea what self-cleavage was measured for C7A G30U ?
OUT: 0.9

IN: Any idea what self-cleavage was measured for U46G A52U ?
OUT: 0.981
